# Tested on: RS4; 11Bcl-2-G101V cells
# ASSAY DETAILS: CellTiter-Glo (CTG) cell viability assay in RS4;11-Bcl-2-G101V cells
# Type: cell-based
# RUN PARAMETERS: 72 h, 10% FBS, 3 days
pIC50: −log10 of the molar value.
Rule: 1 for pIC50 not less than 6, -1 for anything less.

Confirm if pIC50 reported for the molecule CC1(C)CCC(CN2CCN(c3ccc(C(=O)NS(=O)(=O)c4ccc(NCC5CCOCC5)c([N+](=O)[O-])c4)c(Oc4cnc5[nH]ccc5c4)c3)CC2)=C(c2csc(CN3CCOCC3)c2)C1 [Example 21] is 6 or above.
-1

Confirm if pIC50 reported for the molecule CC1(C)CCC(CN2CCN(c3ccc(C(=O)NS(=O)(=O)c4ccc(NC[C@H]5CC[C@](C)(O)CC5)c([N+](=O)[O-])c4)c(Oc4cnc5[nH]ccc5c4)c3)CC2)=C(c2cc(-c3ccc(C(O)(C(F)(F)F)C(F)(F)F)cc3)cs2)C1 [Example 60] is 6 or above.
-1

Confirm if pIC50 reported for the molecule CC1(C)CCC(CN2CCN(c3ccc(C(=O)NS(=O)(=O)c4ccc(NC[C@H]5CC[C@](C)(O)CC5)c([N+](=O)[O-])c4)c(Oc4cnc5[nH]ccc5c4)c3)CC2)=C(c2cc(-c3ccc(C(C)(C)C#N)cc3)cs2)C1 [Example 56] is 6 or above.
-1

Confirm if pIC50 reported for the molecule CC1(C)CCC(CN2CCN(c3ccc(C(=O)NS(=O)(=O)c4ccc(NC[C@H]5CC[C@](C)(O)CC5)c([N+](=O)[O-])c4)c(Oc4cnc5[nH]ccc5c4)c3)CC2)=C(c2cc(-c3ccc(C(C)(C)O)cc3F)cs2)C1 [Example 62] is 6 or above.
1

Confirm if pIC50 reported for the molecule CC1(C)CCC(CN2CCN(c3ccc(C(=O)NS(=O)(=O)c4ccc(NC[C@H]5CC[C@](C)(O)CC5)c([N+](=O)[O-])c4)c(Oc4cnc5[nH]ccc5c4)c3)CC2)=C(c2cc3c(s2)CCN(c2ccc(F)cc2)C3)C1 [Example 16] is 6 or above.
-1

Confirm if pIC50 reported for the molecule CC(C)c1sccc1C1=C(CN2CCN(c3ccc(C(=O)NS(=O)(=O)c4ccc(NC[C@H]5COCCO5)c([N+](=O)[O-])c4)c(Oc4cnc5[nH]ccc5c4)c3)CC2)CCC(C)(C)C1 [Example 13] is 6 or above.
-1

---

# Tested on: RS4; 11Bcl-2-G101V cells
# ASSAY DETAILS: CellTiter-Glo (CTG) cell viability assay in RS4;11-Bcl-2-G101V cells
# Format: cell-based
# RUN PARAMETERS: 72 h, 10% FBS, 3 days
RECORDED METRIC: IC50 (µM)
Give a bare numeral; the unit µM is implied.

Before answering, review these 2 worked examples.
COMPOUND	TARGET SYSTEM	IC50, µM
CC(C)c1csc(C2=C(CN3CCN(c4ccc(C(=O)NS(=O)(=O)c5ccc(NC[C@H]6COCCO6)c([N+](=O)[O-])c5)c(Oc5cnc6[nH]ccc6c5)c4)CC3)CCC(C)(C)C2)c1 [Example 10]	RS4; 11Bcl-2-G101V cells	1.04
CN(C)c1ccccc1-c1csc(C2=C(CN3CCN(c4ccc(C(=O)NS(=O)(=O)c5ccc(NC[C@H]6COCCO6)c([N+](=O)[O-])c5)c(Oc5cnc6[nH]ccc6c5)c4)CC3)CCC(C)(C)C2)c1 [Example 58]	RS4; 11Bcl-2-G101V cells	3.05

Could you tell me which IC50 is on file for CC(C)c1ccc(C2=C(CN3CCN(c4ccc(C(=O)NS(=O)(=O)c5ccc(NCC6CCOCC6)c([N+](=O)[O-])c5)c(Oc5cnc6[nH]ccc6c5)c4)CC3)CCC(C)(C)C2)s1 [Example 12] ?
4.03

Could you tell me which IC50 is on file for CC1(C)CCC(CN2CCN(c3ccc(C(=O)NS(=O)(=O)c4ccc(NC[C@H]5CC[C@](C)(O)CC5)c([N+](=O)[O-])c4)c(Oc4cnc5[nH]ccc5c4)c3)CC2)=C(c2cc(-c3c(F)cc(C4(O)CCC4)cc3F)cs2)C1 [Example 77] ?
0.49

Could you tell me which IC50 is on file for Cc1csc(C2=C(CN3CCN(c4ccc(C(=O)NS(=O)(=O)c5ccc(NCC6CCOCC6)c([N+](=O)[O-])c5)c(Oc5cnc6[nH]ccc6c5)c4)CC3)CCC(C)(C)C2)c1 [Example 5] ?
3.82

---

# Test system: RS4; 11Bcl-2-G101V cells
# ASSAY DETAILS: CellTiter-Glo (CTG) cell viability assay in RS4;11-Bcl-2-G101V cells
# Assay type: cell-based
# RUN PARAMETERS: 72 h, 10% FBS, 3 days
RECORDED METRIC: pIC50
Just the number, please; pIC50 means minus log10 of the concentration in mol/L.

SMILES	RECORDED METRIC	ASSAY VALUE
CC1(C)CCC(CN2CCN(c3ccc(C(=O)NS(=O)(=O)c4ccc(NC[C@H]5CC[C@](C)(O)CC5)c([N+](=O)[O-])c4)c(Oc4cnc5[nH]ccc5c4)c3)CC2)=C(c2cc(-c3cccc(C(C)(C)O)c3)cs2)C1	pIC50	5.84
CC1(C)CCC(CN2CCN(c3ccc(C(=O)NS(=O)(=O)c4ccc(NC[C@H]5COCCO5)c([N+](=O)[O-])c4)c(Oc4cnc5[nH]ccc5c4)c3)CC2)=C(c2cc(CN3CC4(C3)CN(S(C)(=O)=O)C4)cs2)C1	pIC50	5.98
[2H]C([2H])([2H])C(O)(c1cc(F)c(-c2csc(C3=C(CN4CCN(c5ccc(C(=O)NS(=O)(=O)c6ccc(NC[C@H]7CC[C@](C)(O)CC7)c([N+](=O)[O-])c6)c(Oc6cnc7[nH]ccc7c6)c5)CC4)CCC(C)(C)C3)c2)c(F)c1)C([2H])([2H])[2H]	pIC50	7.68

// next item, pIC50 requested
Hello, I am looking for reported pIC50 with RS4; 11Bcl-2-G101V cells for C[C@H](O)c1cc(F)c(-c2csc(C3=C(CN4CCN(c5ccc(C(=O)NS(=O)(=O)c6ccc(NC[C@H]7CC[C@](C)(O)CC7)c([N+](=O)[O-])c6)c(Oc6cnc7[nH]ccc7c6)c5)CC4)CCC(C)(C)C3)c2)c(F)c1 . Could you help?
7.15

---

# TARGET SYSTEM: Bcl-2 WT (Homo sapiens)
# ASSAY DETAILS: Bcl-2 WT inhibition, fluorescence polarization (Flu-BIM tracer) binding assay
# RUN PARAMETERS: FP; 20 nM Bcl2, 5 nM Flu-BIM, 1 h incubation; read-out: Bcl-2 w.t. (FP)
RECORDED METRIC: IC50 (nM)
Give a bare numeral; the unit nM is implied.

Before answering, review these 5 worked examples.
MOLECULE	ASSAY VALUE
CC1(C)CCC(CN2CCN(c3ccc(C(=O)NS(=O)(=O)c4ccc(NCC5CCOCC5)c([N+](=O)[O-])c4)c(Oc4cnc5[nH]ccc5c4)c3)CC2)=C(c2ccc(CN3CCOCC3)s2)C1	26.4
CC(C)c1csc(C2=C(CN3CCN(c4ccc(C(=O)NS(=O)(=O)c5ccc(NCC6CCOCC6)c([N+](=O)[O-])c5)c(Oc5cnc6[nH]ccc6c5)c4)CC3)CCC(C)(C)C2)c1	17.7
CC1(C)CCC(CN2CCN(c3ccc(C(=O)NS(=O)(=O)c4ccc(NC[C@H]5CC[C@](C)(O)CC5)c([N+](=O)[O-])c4)c(Oc4cnc5[nH]ccc5c4)c3)CC2)=C(c2cc(-c3ccc(C(C)(C)O)cc3)cs2)C1	29.3
CC1(C)CCC(CN2CCN(c3ccc(C(=O)NS(=O)(=O)c4ccc(NC[C@H]5CC[C@](C)(O)CC5)c([N+](=O)[O-])c4)c(Oc4cnc5[nH]ccc5c4)c3)CC2)=C(c2cc(-c3ccc(C(F)F)cc3)cs2)C1	38.4
CC1(C)CCC(CN2CCN(c3ccc(C(=O)NS(=O)(=O)c4ccc(NC[C@H]5CC[C@](C)(O)CC5)c([N+](=O)[O-])c4)c(Oc4cnc5[nH]ccc5c4)c3)CC2)=C(c2cc3c(s2)CCN(c2ccc(F)cc2)C3)C1	42

// next item, IC50 requested
Could you tell me which IC50 is on file for CC1(C)CCC(CN2CCN(c3ccc(C(=O)NS(=O)(=O)c4ccc(NC[C@H]5COCCO5)c([N+](=O)[O-])c4)c(Oc4cnc5[nH]ccc5c4)c3)CC2)=C(c2cc(CN3CCOCC3)cs2)C1 ?
25.4

---

# TARGET SYSTEM: Bcl-2 WT (Homo sapiens, UniProt P10415)
# Sequence (P10415 whole entry): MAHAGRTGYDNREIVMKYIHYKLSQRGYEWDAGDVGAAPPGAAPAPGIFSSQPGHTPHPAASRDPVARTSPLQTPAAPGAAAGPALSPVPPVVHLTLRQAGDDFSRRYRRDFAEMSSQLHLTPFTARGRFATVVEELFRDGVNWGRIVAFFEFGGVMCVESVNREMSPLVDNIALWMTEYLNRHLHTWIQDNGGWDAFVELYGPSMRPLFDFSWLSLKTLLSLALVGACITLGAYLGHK
# ASSAY DETAILS: Bcl-2 WT inhibition, fluorescence polarization (Flu-BIM tracer) binding assay
# RUN PARAMETERS: FP; 20 nM Bcl2, 5 nM Flu-BIM, 1 h incubation; read-out: Bcl-2 w.t. (FP)
Kindly apply the following: met if IC50 is less than 30 nM, not met in every other case.

Worked set:
SMILES	TARGET SYSTEM	ASSIGNED LABEL
C[C@@H]1CN(Cc2csc(C3=C(CN4CCN(c5ccc(C(=O)NS(=O)(=O)c6ccc(NC[C@H]7COCCO7)c([N+](=O)[O-])c6)c(Oc6cnc7[nH]ccc7c6)c5)CC4)CCC(C)(C)C3)c2)C[C@H](C)N1C	Bcl-2 WT (Homo sapiens, UniProt P10415)	met
CC1(C)CCC(CN2CCN(c3ccc(C(=O)NS(=O)(=O)c4ccc(NCC5CCOCC5)c([N+](=O)[O-])c4)c(Oc4cnc5[nH]ccc5c4)c3)CC2)=C(c2ccsc2-c2ccccc2)C1	Bcl-2 WT (Homo sapiens, UniProt P10415)	not met
CC1(C)CCC(CN2CCN(c3ccc(C(=O)NS(=O)(=O)c4ccc(NC[C@H]5COCCO5)c([N+](=O)[O-])c4)c(Oc4cnc5[nH]ccc5c4)c3)CC2)=C(c2cc(-c3ccc(Cl)cc3)cs2)C1	Bcl-2 WT (Homo sapiens, UniProt P10415)	met

Take the compound CC1(C)CCC(CN2CCN(c3ccc(C(=O)NS(=O)(=O)c4ccc(NC[C@H]5CC[C@](C)(O)CC5)c([N+](=O)[O-])c4)c(Oc4cnc5[nH]ccc5c4)c3)CC2)=C(c2cc(-c3cc(F)cc(C#N)c3)cs2)C1 and say whether its IC50 is less than 30 nM.
not met
